meta.source: paper PMC12612973

# target_or_test_system: human amylin (hIAPP) (Homo sapiens, UniProt P10997)
# Sequence (P10997 34-70 limits assumed): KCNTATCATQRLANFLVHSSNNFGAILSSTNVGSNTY
# method: Thioflavin T (ThT) fluorescence assay of amylin aggregation
# measurement_context: read-out: IC50 of amylin aggregation inhibition
Consider the following molecules; for each one, report its IC50.
One number for each entry, in µM.

These recorded examples may help you get a feel for the data.
[[record]]
molecule = "CC(C)(C)c1cccc(CNCC(O)CCNCCC(c2ccccc2)c2ccccc2)c1 (centres unmarked)"
assay_result = 2.71

[[record]]
molecule = "CC(C)(C)c1cccc(CNCC(O)CCN2CCN(C(c3ccccc3)c3ccccc3)CC2)c1 (centres unmarked)"
assay_result = 3.75

[[record]]
molecule = "CC(C)(C)c1cccc(CNCC(O)CNCC(c2ccccc2)c2ccccc2)c1 (centres unmarked)"
assay_result = 3.65

[[record]]
molecule = "C/C=C1/C(O)OC=C(C(=O)OC)[C@H]1CC(=O)OCCc1ccc(O)c(O)c1 (mixture of isomers) [Oleuropein aglycone, reference compound]"
assay_result = 1


Could you tell me IC50 for each of these molecules? They are listed below.
1. OC(CNCCC(c1ccccc1)c1ccccc1)CNCc1ccccc1 (centres unmarked)
2. CC(C)(C)c1cccc(CNCC(O)CN2CCN(C(c3ccccc3)c3ccccc3)CC2)c1 (centres unmarked)
3. CC(C)(C)c1cccc(CNCC(O)CCNCC(c2ccccc2)c2ccccc2)c1 (centres unmarked)

OUT:
3.1
4.11
3.53

IN: What does the data say about its IC50? Entry: CC(C)(C)c1cccc(CNCC(O)CNCCC(c2ccccc2)c2ccccc2)c1 (centres unmarked)
OUT: 3.04
